Source: the supplement of paper PMC9732359

The following sequences are shown together with reported protein stability index values.
test: protein stability index of a GFP-peptide fusion (yeast GPS) (PSI 1-4); higher = more stable; sorted into four equal gates, so the index is relative within each strain; details: ubr1∆
recorded-endpoint: protein stability index

>>> print(df.to_string())
                        input_sequence  value_measured
 0            QQQQQQQQQTSPPPQTH [SNF5]            2.82
 1            SSFNKRSKFLSTVAKFL [IRR1]             2.4
 2            VKFYEIFNFDQLVEITE [SRB8]            1.37
 3           SKALLREISNFSKGDAD [SRP72]            3.77
 4            SMPLEQLIPIILRQRGP [SRB4]            1.91
 5          RKANREEKLKANKEKKR [RPL24B]            2.27
 6            NERRKDLAERASELDES [SMC3]            2.97
 7            DGGLFTLFVRDQDSAVV [QCR2]            3.32
 8            ISNGTINIQKKLEPKEI [SIR4]               3
 9            RNEVLESMDFLVLADAF [YCS4]            2.72
10            VRNSFPLDEIPVDVDFN [REC8]            2.99
11            PSVGVKTMKTFVIHIQE [RPB5]            2.76
12           KWPEYVRLQRQKKILSI [RPL8B]            1.17
13            NKLEKLNSLLTYIKSEI [SMC4]            2.87
14            SLAVRSLQDRSSLVRRN [YCS4]            2.59
15           DEEMLTSCTIPKAVVDH [GAL11]             2.9
16            GRVKYTKRQKHFAWLPT [POP1]            2.55
17          EAAAVRDLSEASVYPEY [RPS26A]            2.93
18  LNKSDLLDKYGKTGLSN [YML103C/NUP188]            3.38
19    AQFTFGKAATAKETHTK [YOR098C/NUP1]            3.02
20            RAGMTHEDEKLIPTIFR [PRP8]            3.19
21            GINSKSGKPFIAGFDLI [PUP3]            3.06
22            YATKRQEAIQQNRRLAF [PRP8]            2.61
23  NFILEVFGTIIPKISDY [YJL039C/NUP192]            1.61
24           SSYDLLFNESFIMASVG [SRP72]            3.16
25           EYKLRSLTLSFIRHVAK [ECM29]            2.81
26            SVTRAGNIISSDKTIVP [SIN4]             3.1
27            LCDLFVNGSITDQLIQN [NUT1]            3.44
28            VFVGTIFAGAFVFQTVF [QCR9]             1.5
29            AAELQEKPLTPLKYTKL [SNF6]            2.78
